Molecular target: T1, mouse CD47 (mouse, UniProt Q61735 19-140, limits assumed)
T1 sequence (looked up): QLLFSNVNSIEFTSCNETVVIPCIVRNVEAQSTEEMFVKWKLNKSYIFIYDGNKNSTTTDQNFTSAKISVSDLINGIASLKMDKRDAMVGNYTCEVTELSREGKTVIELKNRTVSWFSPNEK
Assay: ELISA, coated mouse CD47 ECD Fc, supernatant, anti-c-Myc HRP
Entries annotated with measured mCD47 binding (OD)
Dear colleague, please return just the value in OD, with no unit written.

Known results for binders:
4RP6-1-10A (designed binder, tested as bacterial supernatant; also called S-16; hSIRPα-mt13 (IgV domain)) hSIRPα IgV domain mutant: EEELQVIQPDKSVSVAAGESAILHCTVTSLLPVGPIQWFRGAGPARELIYNQKDFLFPRVTTVSESTKRENRDFSISISNITPADAGTYYCVKFRKGSPDTEFKSGAGTELSVRAKPS : 0.41
4RP13-3-11A (designed binder, tested as bacterial supernatant; also called S-2; hSIRPα-mt3 (IgV domain)) hSIRPα IgV domain mutant: EEELQVIQPDKSVSVAAGESAILHCTVTSLWPVGPIQWFRGAGPARELIYNQKAWPFPRVTTVSESTKRENMDFSISISNITPADAGTYYCVKFRKGSPDTEFKSGAGTELSVRAKPS : 0.348
4RP13-1-7A (designed binder, tested as bacterial supernatant; also called S-19; hSIRPα-mt8 (IgV domain)) hSIRPα IgV domain mutant: EEELQVIQPDKSVSVAAGESAILHCTVTSLKPVGPIQWFRGAGPARELIYNQKRDTFPRVTTVSESTKRENRDFSISISNITPADAGTYYCVKFRKGSPDTEFKSGAGTELSVRAKPS : 0.293

Here is the next item to consider.
4RP13-1-2G (designed binder, tested as bacterial supernatant; also called S-5; hSIRPα-mt4 (IgV domain)) hSIRPα IgV domain mutant: EEELQVIQPDKSVSVAAGESAILRCTVTSLWPVGPIQWFRGAGPARELIYNQKAFIFPRVTTVSESTKRGNMDFSISISNITPADAGTYYCVKFRKGSPDTEFKSGAGTELSVRAKPS has a reported mCD47 binding (OD) of 0.412
